System: Staphylococcus aureus
assay-text: Antibacterial activity against Staphylococcus aureus MRSA ATCC 43300 (CO-ADD:GP_020); MIC in CAMBH media using NBS plates, by Resazurin F(560/590)
Format: functional
cond: Concentration 20 uM, ASSAY_TEST Inhibition of Bacterial Growth, detection method Resazurin, Fluorescence (ex560/em590), MEDIA CAMHB, plate type 384well, CORNING #3640, time 18 hr
experimental-readout: Inhibition (%)
Express it in %; write the number only.

IN: For the record `CN(C)S(=O)(=O)c1ccccc1N=C=S` , what value of Inhibition is listed for Staphylococcus aureus?
OUT: 19.33

IN: And for `Cn1c(CO)cnc1-c1ccccc1` ?
OUT: 2.4

IN: And for `COc1ccc(C(=O)O)nc1C` ?
OUT: -3.26

IN: And for CCOC(=O)C(C#N)C(=N)C1C(=O)OC2CCCCC21 (configuration not stated) ?
OUT: 5.44

IN: And for `Clc1[nH]cnc2nccc1-2` ?
OUT: 1.4

IN: And for `CC(=O)Nc1ccc(OCCOc2ccc([N+](=O)[O-])cc2)cc1` ?
OUT: 16.53

IN: And for `CCC(CC)c1ncc[nH]1` ?
OUT: -6.72

IN: And for `Cc1nnsc1C(=O)NCc1c(F)cccc1Cl` ?
OUT: -1.87

IN: And for `O=C(O)c1ccccc1-n1c2ccccc2c2ccccc21` ?
OUT: 10.38

IN: And for `CCc1nc(NC(C)(C)C)c2cnn(-c3ccccc3)c2n1` ?
OUT: 6.25

IN: And for `O=C1c2cc([N+](=O)[O-])ccc2-c2cc(Br)c(NC(=NO)C(F)(F)F)cc21` ?
OUT: 19.28

IN: And for `CC(C)(C)CC(C)(C)n1nnnc1N` ?
OUT: 12.74

IN: And for C#CC(C)OCC1CNC(=S)O1 (configuration not stated) ?
OUT: 8.34

IN: And for `Oc1ccc(Cc2ccccc2Cl)c(O)c1` ?
OUT: 14.48

IN: And for `Cc1cccc(NC2=C(C#N)C(=O)NC3(CCCC3)S2)c1` ?
OUT: -0.83

IN: And for `Cc1cc(NC(=O)OC(C)C)ccc1-c1ccc(NC(=O)OC(C)C)cc1C` ?
OUT: 6.05

IN: And for `Nc1nc(N)nc(-c2ccccc2-c2nc(N)nc(N)n2)n1` ?
OUT: 10.97

----------
System: Candida albicans
cond: 20 µM
Description: Antifungal activity against Candida albicans ATCC 90028 (CO-ADD:FG_001); MIC in YNB media using NBS plates, by OD630
Results with a measured potency or affinity are listed apart.
Inhibition vs 6%: less than gives yes (1); not less than gives no (0).

Use these answered entries as a reference point.
>>> print(df.to_string())
                                   compound  category
0  OC(COc1ccccc1)CN1CCN(c2ccccc2)CC1 (stereo unspecified)   yes (1)
1               COc1cc(S(N)(=O)=O)c(OC)cc1N   yes (1)
2          CCOC(=O)c1c(C)c(C(=O)OCC)n(C)c1C   yes (1)
3          Cc1cc(C)n(C(=N)NC(=O)c2ccccc2)n1    no (0)

IN: Quick check: does `Br.CN(C)c1n/c(=N/Cc2ccco2)ss1` have Inhibition under 6%?
OUT: no (0)

IN: And for `CS(=O)(=O)Oc1ccc(Br)c2cccnc12` ?
OUT: yes (1)
